# Assay details: in vivo
# Setup conditions: ICR, mouse, plasma, po, 30 mg/kg
Would you kindly list concentration at 6 h for each of these compounds?
One number for each entry, in nM.

Q: Provide one value: measured concentration at 6 h of `COc1cc(CCc2cnc(Nc3ccc(N4CCC(N5CCN(C)CC5)CC4)c(OC)c3)nc2)cc(OC)c1`
Result: 1120

Now for another entry.
Q: Tell me measured concentration at 6 h for `CCNS(=O)(=O)c1ccccc1Nc1nc(Nc2ccc(N3CCC(N4CCN(C)CC4)CC3)c(OC)c2)ncc1NC(=O)c1cc(OC)cc(OC)c1` please.
Result: 98.2

* * *

# Assay details: physchem
# Setup conditions: JP2 fluid, pH 6.8
Quantity: solubility at 20 h, 10000 µM

Q: Write down solubility at 20 h, 10000 µM measured for item `COc1cc(OC)cc(C(=O)Nc2cnc(Nc3ccc(N4CCC(N5CCN(C)CC5)CC4)c(OC)c3)nc2NCCS(C)(=O)=O)c1`
Result: ≥ 100 µM

Q: Please give the documented solubility at 20 h, 10000 µM of `CCNS(=O)(=O)c1ccccc1Nc1nc(Nc2ccc(N3CCC(N4CCN(C)CC4)CC3)c(OC)c2)ncc1NC(=O)c1cc(OC)cc(OC)c1`
Result: < 1 µM

Q: Specify measured solubility at 20 h, 10000 µM for `COc1cc(Nc2ncc(CCc3c(F)c(OC)cc(OC)c3Cl)cn2)ccc1N1CCC(N2CCN(C)CC2)CC1` .
Result: 12 µM

Q: Determine its reported solubility at 20 h, 10000 µM: `COc1cc(OC)cc(C(=O)Nc2cnc(Nc3ccc(N4CCC(N5CCN(C)CC5)CC4)c(OC)c3)nc2Nc2ccccc2)c1`
Result: 36 µM

Q: Please look at this compound and report its solubility at 20 h, 10000 µM: `COc1cc(OC)cc(OCc2cnc(Nc3ccc(N4CCC(N5CCN(C)CC5)CC4)c(OC)c3)nc2)c1`
Result: ≥ 100 µM

Here are 4 compounds. What values of solubility at 20 h, 10000 µM were reported for them?
1. COc1cc(CNc2cnc(Nc3ccc(N4CCC(N5CCN(C)CC5)CC4)c(OC)c3)nc2)cc(OC)c1
2. COc1cc(Nc2ncc(CCc3c(Cl)c(OC)cc(OC)c3Cl)cn2)ccc1N1CCC(N2CCN(C)CC2)CC1
3. COc1cc(COc2cnc(Nc3ccc(N4CCC(N5CCN(C)CC5)CC4)c(OC)c3)nc2)cc(OC)c1
4. COc1cc(OC)cc(C(=O)N(C)c2cnc(Nc3ccc(N4CCC(N5CCN(C)CC5)CC4)c(OC)c3)nc2)c1

Result:
1: ≥ 100 µM; 2: 5 µM; 3: ≥ 100 µM; 4: ≥ 100 µM

* * *

# Assay details: in vitro
# Setup conditions: PAMPA, pH 7.4
Quantity: Papp at 2 h (nm/s)
One number for each entry, in nm/s.

Worked examples follow.
Q: Look up and state reported Papp at 2 h for `COc1cc(OC)cc(C(=O)Nc2cnc(Nc3ccc(N4CCC(N5CCN(C)CC5)CC4)c(OC)c3)nc2Nc2ccccc2)c1`
Result: 4

Q: Note Papp at 2 h for the compound shown: `COc1cc(CNc2cnc(Nc3ccc(N4CCC(N5CCN(C)CC5)CC4)c(OC)c3)nc2)cc(OC)c1`
Result: 181

# context switch: different compound, same Papp at 2 h
Q: Look up Papp at 2 h of `COc1cc(CCc2cnc(Nc3ccc(N4CCC(N5CCN(C)CC5)CC4)c(OC)c3)nc2)cc(OC)c1` and report it.
Result: 151

Recorded values, source ChEMBL document CHEMBL4715898.
